Molecular target: MAPK14 (UniProt Q16539)
Sequence (Q16539 whole entry, looked up): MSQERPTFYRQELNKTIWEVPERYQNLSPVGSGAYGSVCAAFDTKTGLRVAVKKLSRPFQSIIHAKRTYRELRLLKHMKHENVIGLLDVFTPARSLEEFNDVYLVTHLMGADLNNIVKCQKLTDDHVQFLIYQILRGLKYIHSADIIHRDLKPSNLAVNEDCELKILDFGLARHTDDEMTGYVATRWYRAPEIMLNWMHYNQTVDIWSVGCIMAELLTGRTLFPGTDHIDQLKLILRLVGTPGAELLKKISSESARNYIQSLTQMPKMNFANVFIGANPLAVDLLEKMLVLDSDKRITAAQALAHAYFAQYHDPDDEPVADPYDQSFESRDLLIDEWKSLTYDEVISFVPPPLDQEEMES
Quick list: IC50 per entry.

Example compounds with recorded IC50:
CC(C)S(=O)(=O)n1c(N)nc2ccc(-c3c(-c4ccccc4)ncn3C3CCC(N)CC3)cc21 (stereo not given)	≤ 5 µM
CC(C)S(=O)(=O)n1c(N)nc2ccc(-c3nc(-c4ccc(OCCN5CCOCC5)c(F)c4)[nH]c3-c3ccccc3)cc21	≤ 5 µM
CC(C)S(=O)(=O)n1c(N)nc2ccc(-c3c(-c4ccc(F)cc4)ncn3[C@@H](C)CO)cc21	≤ 5 µM
CC(C)S(=O)(=O)n1c(N)nc2ccc(-c3c(-c4ccc(F)cc4)ncn3C3CC3)cc21	≤ 5 µM

Let us examine a further case.
Asked: Fill in: IC50 on MAPK14 (UniProt Q16539), entry Cc1nc(-c2ccc3nc(N)n(S(=O)(=O)C(C)C)c3c2)c(-c2ccc(F)cc2F)[nH]1
Given back: ≤ 5 µM
